read-out: Hypoxia-inducible factor 1-alpha (Homo sapiens) (UniProt Q16665); experiment: LTEA_HepaRG_HIF1A: Life Technologies and Expression Analysis (LTEA) Assay for Hypoxia-inducible factor 1 (HIF1A) Trancription factor using HepaRG (AID 2283503); conditions: mRNA level, 48 h; actives raise or lower the signal;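 note: HIF1A transcript by TaqMan qRT-PCR normalized to ACTB GAPDH and POLR2A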
Sequence (Q16665 whole entry, looked up): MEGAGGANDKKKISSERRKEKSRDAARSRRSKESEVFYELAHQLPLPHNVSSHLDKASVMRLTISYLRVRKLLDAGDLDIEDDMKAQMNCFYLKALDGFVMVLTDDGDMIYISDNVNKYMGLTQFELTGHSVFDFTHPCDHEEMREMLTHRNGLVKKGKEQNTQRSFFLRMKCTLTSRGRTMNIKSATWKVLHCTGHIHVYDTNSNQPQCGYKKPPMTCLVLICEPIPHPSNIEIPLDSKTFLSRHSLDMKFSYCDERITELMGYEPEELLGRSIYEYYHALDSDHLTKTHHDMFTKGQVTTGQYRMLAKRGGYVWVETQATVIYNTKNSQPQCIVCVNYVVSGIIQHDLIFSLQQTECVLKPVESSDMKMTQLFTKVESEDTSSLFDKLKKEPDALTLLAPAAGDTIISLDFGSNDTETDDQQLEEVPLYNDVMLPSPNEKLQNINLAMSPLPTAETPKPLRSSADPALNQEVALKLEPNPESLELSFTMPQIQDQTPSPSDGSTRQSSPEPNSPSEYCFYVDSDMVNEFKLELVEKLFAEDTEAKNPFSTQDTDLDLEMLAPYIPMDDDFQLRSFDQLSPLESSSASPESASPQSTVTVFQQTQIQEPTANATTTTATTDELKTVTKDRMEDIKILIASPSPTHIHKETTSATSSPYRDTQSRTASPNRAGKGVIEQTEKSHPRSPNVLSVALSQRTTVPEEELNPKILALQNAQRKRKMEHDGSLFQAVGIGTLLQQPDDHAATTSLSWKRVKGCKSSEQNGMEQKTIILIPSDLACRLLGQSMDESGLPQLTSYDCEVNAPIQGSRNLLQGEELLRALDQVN
The source made the active and inactive calls. Rule for the calls: active = hit-call score of the fitted dose curve at least 0.9, where 1 is the maximum; inactive = score below 0.9.
Outcomes: active, inactive

[
  {
    "compound": "Cc1ccc(C(C)C)cc1",
    "group": "inactive"
  },
  {
    "compound": "Cc1cccc2ccccc12",
    "group": "inactive"
  },
  {
    "compound": "COc1ccc2cc(S(=O)(=O)N[C@H](CC(=O)N[C@H](Cc3ccc(CN4[C@H](C)CCC[C@@H]4C)cc3)C(=O)N(C)C(C)C)c3ccc4c(c3)OCO4)ccc2c1",
    "group": "active"
  },
  {
    "compound": "Cc1ccc2oc(CN(Cc3ccccc3)C(=O)Nc3c(F)cc(F)cc3F)c(-c3ccc(Cl)cc3)c2c1",
    "group": "inactive"
  },
  {
    "compound": "C[C@]12CC[C@@H]3c4ccc(O)cc4CC[C@H]3[C@@H]1CCC2=O",
    "group": "inactive"
  },
  {
    "compound": "COCC(C)OCC(C)OCC(C)O (stereo not given)",
    "group": "inactive"
  },
  {
    "compound": "CN(C[C@@H](CC[N+]12CCC(C3CCCCC3)(CC1)CC2)c1ccc(Cl)c(Cl)c1)C(=O)c1cc(C(F)(F)F)cc(C(F)(F)F)c1",
    "group": "active"
  },
  {
    "compound": "O=C1O[C@H]([C@@H](O)CO)C(O)=C1O",
    "group": "inactive"
  },
  {
    "compound": "CCCCCc1ccc(N)cc1",
    "group": "inactive"
  },
  {
    "compound": "CC(C)(C)c1cc(/C=C2\\SC(N)=NC2=O)cc(C(C)(C)C)c1O",
    "group": "active"
  },
  {
    "compound": "CCCCCCCCOc1ccc(C(=O)c2ccccc2)c(O)c1",
    "group": "inactive"
  },
  {
    "compound": "c1ccc(C[n+]2cccc3ccccc32)cc1",
    "group": "inactive"
  },
  {
    "compound": "OC12N=C(c3ccccc3)SC1Cc1cc(Cl)ccc12 (stereo not given)",
    "group": "inactive"
  },
  {
    "compound": "CC/C(=C(/CC)c1ccc(O)cc1)c1ccc(O)cc1",
    "group": "active"
  },
  {
    "compound": "O=c1c(-c2ccc(O)cc2)coc2cc(O)cc(O)c12",
    "group": "inactive"
  },
  {
    "compound": "O=CCCCC=O",
    "group": "inactive"
  },
  {
    "compound": "OCCO",
    "group": "inactive"
  },
  {
    "compound": "CC(C)(c1cc(Br)c(O)c(Br)c1)c1cc(Br)c(O)c(Br)c1",
    "group": "active"
  },
  {
    "compound": "Clc1cc(Cl)c2c(c1)N=C1CCCCCN1C2",
    "group": "inactive"
  },
  {
    "compound": "CCN(Cc1cccnc1)C(=O)c1cccc(Cl)c1[C@]1(C)C(=O)N(Cc2ccc(OC)cc2OC)c2ccc(Cl)cc21",
    "group": "inactive"
  },
  {
    "compound": "CCCCCCCC[Si](OCC)(OCC)OCC",
    "group": "inactive"
  },
  {
    "compound": "Oc1ccccc1",
    "group": "inactive"
  },
  {
    "compound": "O=C(Nc1ccc(Cl)cc1)Nc1ccc(Cl)c(Cl)c1",
    "group": "active"
  },
  {
    "compound": "Cc1cc(F)ccc1-c1cc(N2CC[C@@H](O)[C@H]2CO)ncc1N(C)C(=O)C(C)(C)c1cc(C(F)(F)F)cc(C(F)(F)F)c1",
    "group": "active"
  },
  {
    "compound": "O=C(O)c1ccccc1C(=O)OCc1ccccc1",
    "group": "inactive"
  },
  {
    "compound": "O=c1[nH]sc2ccccc12",
    "group": "inactive"
  },
  {
    "compound": "CN1C(=O)N(c2ccccc2Br)Cc2cnc(Nc3ccc4c(c3)OCC(CO)O4)nc21 (stereo not given)",
    "group": "active"
  },
  {
    "compound": "CCO[Si](CCCNC(N)=O)(OCC)OCC",
    "group": "inactive"
  },
  {
    "compound": "CCCCCCCCCCCO",
    "group": "inactive"
  },
  {
    "compound": "Cc1occc1C(=O)Nc1ccc(C(=O)N2CCC(F)(F)/C(=C\\C(=O)N3CCC(N4CCCCC4)CC3)c3ccccc32)cc1",
    "group": "inactive"
  }
]

Data origin: PubChem BioAssay (EPA / NIEHS)
